Assay: MTT cytotoxicity assay on HepG2 cells
Format: cell-based, human
Measurement parameters: human, read-out: Selectivity index (SI) = IC50 HepG2 / IC50 HTLA-ER
Observation type: selectivity ratio at 24 h

>>> print(df.to_string())
                                 cpd_smiles           observation_type  recorded_value
0  c1ccc([P+](CCCCCCCCCCCC[P+](c2ccccc2)(c2ccccc2)c2ccccc2)(c2ccccc2)c2ccccc2)cc1  selectivity ratio at 24 h             8.7

###

Assay: MTT cytotoxicity assay on Cos-7 cells
Type: cell-based, African green monkey
Measurement parameters: African green monkey, read-out: Selectivity index (SI) = IC50 Cos-7 / IC50 HTLA-ER
Observation type: selectivity ratio at 24 h

>>> df
                                   compound  recorded_value
0  c1ccc([P+](CCCCCCCCCCCC[P+](c2ccccc2)(c2ccccc2)c2ccccc2)(c2ccccc2)c2ccccc2)cc1 [BPPB]            4.42
